Measured ΔTm (Serine/threonine-protein kinase pim-2 (Homo sapiens, UniProt Q9P1W9))
Value expressed in °C; do not type the unit.

Guide cases for ΔTm, answers given:
compound	property label	quantity unit	value
O=C1Nc2ccccc2/C1=C1/Nc2ccccc2/C1=N\O	ΔTm	°C	2.8
CN1CCc2[nH]c(=S)c(C#N)c(-c3cccs3)c2C1	ΔTm	°C	-0.3
COc1ccc2c(c1)/C(=C/c1cnc[nH]1)C(=O)N2	ΔTm	°C	1.7
CN(C)CC1CCn2c(c(C3=C(c4c[nH]c5ccccc45)C(=O)NC3=O)c3ccccc32)C1 (configuration not stated)	ΔTm	°C	1.7
O=C1Nc2ccc(I)cc2/C1=C\c1cc(Br)c(O)c(Br)c1	ΔTm	°C	6.8

For "CN(C)CCCn1cc(C2=C(c3c[nH]c4ccccc34)C(=O)NC2=O)c2ccccc21" , what is its reported ΔTm?
5.2

Next: "Nc1cccc(-c2cc3c(Oc4cccc(O)c4)ncnc3[nH]2)c1"
0.8

How about this compound: "O=c1sn(Cc2ccccc2)c(=S)n1Cc1ccccc1"
-0.2

Moving on to the next compound: "NC1=N/C(=C2/CCNC(=O)c3[nH]ccc32)C(=O)N1"
2.5

Okay, and "O=C1Cc2c([nH]c3ccc([N+](=O)[O-])cc23)-c2ccccc2N1" ?
1.5

###

experimental system: Serine/threonine-protein kinase PLK4 (Homo sapiens)
Sequence (whole entry): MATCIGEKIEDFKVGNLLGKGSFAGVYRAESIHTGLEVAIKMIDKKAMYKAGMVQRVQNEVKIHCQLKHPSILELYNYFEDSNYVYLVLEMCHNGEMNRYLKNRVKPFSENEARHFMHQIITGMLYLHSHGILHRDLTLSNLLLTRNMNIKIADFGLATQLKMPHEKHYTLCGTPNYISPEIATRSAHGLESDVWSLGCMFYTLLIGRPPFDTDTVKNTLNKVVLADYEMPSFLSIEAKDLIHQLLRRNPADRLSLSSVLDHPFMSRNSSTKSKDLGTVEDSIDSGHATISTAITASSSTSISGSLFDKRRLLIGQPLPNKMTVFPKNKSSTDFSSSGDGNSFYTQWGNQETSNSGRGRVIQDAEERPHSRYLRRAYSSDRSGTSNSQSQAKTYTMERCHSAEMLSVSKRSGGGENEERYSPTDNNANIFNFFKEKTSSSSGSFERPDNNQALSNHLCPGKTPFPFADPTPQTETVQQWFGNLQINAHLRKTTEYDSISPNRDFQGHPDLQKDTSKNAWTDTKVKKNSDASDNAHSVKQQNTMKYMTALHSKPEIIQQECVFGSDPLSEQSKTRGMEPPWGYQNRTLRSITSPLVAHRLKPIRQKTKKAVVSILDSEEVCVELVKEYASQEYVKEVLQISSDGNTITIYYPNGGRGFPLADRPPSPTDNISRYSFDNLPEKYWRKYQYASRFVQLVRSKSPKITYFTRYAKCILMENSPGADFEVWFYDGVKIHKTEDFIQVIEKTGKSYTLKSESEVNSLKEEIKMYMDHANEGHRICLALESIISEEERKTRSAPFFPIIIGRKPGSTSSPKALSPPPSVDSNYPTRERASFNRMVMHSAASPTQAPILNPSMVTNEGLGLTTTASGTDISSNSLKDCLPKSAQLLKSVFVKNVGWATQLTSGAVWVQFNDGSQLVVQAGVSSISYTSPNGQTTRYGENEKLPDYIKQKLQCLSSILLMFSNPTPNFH
property label: ΔTm (°C)
The reply should contain only the number, in °C.

Some solved cases for reference:
molecule	value
C[S+]([O-])c1ccc(-c2nc(-c3ccc(F)cc3)c(-c3ccncc3)[nH]2)cc1 (stereo not given) [SB-203580]	0.7
C[C@@H](N)[C@H]1CC[C@H](C(=O)Nc2ccncc2)CC1	0.3
O=c1sn(Cc2ccccc2)c(=S)n1Cc1ccccc1	-0.2
Cn1cnc2c(NCc3ccccc3)nc(NCCO)nc21 [OLOMOUCINE]	0.2

Pending molecule:
Which value of ΔTm has been reported for "Oc1ccc(-c2nc(-c3ccc(F)cc3)c(-c3ccncc3)[nH]2)cc1" in the records?
1.1

Source listed as ChEMBL document CHEMBL1145498.
